# CONDITION DESCRIPTION: a range is the spread between reports
MEASURED QUANTITY: melting point

* CC(C)c1ccccc1Cl | -74.4 to -74 °C
* Cc1ccc(Cl)cc1 | 7 to 8 °C
* COc1cccc(N)c1 | -1 to 0 °C
* CC#CC | -32.3 to -32 °C
* CC(=O)CC(C)C | -84 to -80 °C
* CCC(C)C | -160 °C
* Cn1ccnc1S | 146 to 147 °C
* CCCCCCCCC(=O)CCCCCCCC | 52 to 53 °C
* C[Si](C)(C)C#C[Si](C)(C)C | 22 to 26 °C
* O=C(Oc1cccc(O)c1)c1ccccc1 | 132 to 134 °C
* C=CCCCCCCCCC(=O)O | 24 to 24.5 °C
* CCc1ccc(O)cc1 | 43 to 47 °C
* CCCOCC | -128 to -127 °C
* CC(=O)c1ccccc1 | 19 to 20.5 °C
* C1CCOC1 | -108 °C
* Cc1cc2nc[nH]c2cc1C | 204 to 206 °C
* O=[N+]([O-])c1cc(C(F)(F)F)cc([N+](=O)[O-])c1Cl | 56 to 57 °C
* CC(C)CCOC=O | -93.5 to -93 °C
* CCCCCCCCCCCCBr | -10 to -9.5 °C
* ClC(Cl)c1ccccc1 | -17 to -16 °C
* c1ccc(-c2nc3ccccc3s2)cc1 | 114 to 115 °C
* O=C1Cc2ccccc2C(=O)O1 | 142 to 143 °C
* c1ccc(-c2ccnc3c2ccc2c(-c4ccccc4)ccnc23)cc1 | 218 to 220 °C
* Oc1cc(Cl)ccc1Oc1ccc(Cl)cc1Cl | 55.6 to 57 °C
* O=C(NCc1ccccc1)c1ccccc1 | 105 to 106 °C
* Oc1c(F)c(F)c(F)c(F)c1F | 32.8 to 35 °C
* CCCC=O | -99 to -96 °C
* Nc1c(Cl)cc(Cl)cc1Br | 80 to 83.5 °C
* Oc1cc(Cl)cc(Cl)c1 | 66 to 68 °C
* N#Cc1c(F)c(F)c(F)c(C#N)c1F | 77 to 79 °C
* COC(=O)c1c[nH]c2ccccc12 | 150 to 151 °C
* C=CCCCCCCCCCO | -3 to -2 °C
* CC1(C(=O)O)CCC(C(=O)O)C1(C)C (stereo unspecified) | 187 to 189 °C
* CCCCC(N)=O | 103 to 106 °C
* CCC(c1ccccc1)c1ccccc1 | 13.3 to 14 °C
* CCCCC(CC)COC(=O)CCCCC(=O)OCC(CC)CCCC (stereo unspecified) | -67.8 to -67 °C
* N#CCC(=O)c1ccccc1 | 80.5 to 83 °C
* O=C(O)c1ccccc1-c1ccccc1 | 112 to 115 °C
* C1CCNCC1 | -11 to -7 °C
* NC(=O)C(Cl)Cl | 99 to 99.4 °C
* CCOC(=O)CC(C)=O | -45 to -43 °C
* ClC1C(Cl)C(Cl)C(Cl)C(Cl)C1Cl (stereo unspecified) | 159 to 160 °C
* CCCCCCCCCCCCCCCCCCCCCCCCCC | 56.4 to 57 °C
* ClC(Cl)=C(Cl)C(Cl)(Cl)Cl | -73 to -72.9 °C
* NC(=S)Nc1ccccc1 | 149 to 154 °C
* ClC(Cl)Br | -57 to -55 °C
* OCc1ccccc1O | 85 to 87 °C
* C1CSCCS1 | 111 to 112 °C
* O=C1CSC(=S)N1 | 169 to 170 °C
* SCc1ccccc1 | -30 to -29 °C
* Clc1cccc(Cl)c1Br | 61 to 66 °C
* COc1ccc(OC)c(C=O)c1 | 49 to 52 °C
* O=Cc1ccc(I)cc1 | 77 to 78 °C
* CCCOC(=O)c1ccc(N)cc1 | 74 to 75 °C
* CC(C(=O)O)(c1ccccc1)c1ccccc1 | 173 to 176 °C
* Oc1c(Cl)ccc(Cl)c1Cl | 56 to 58 °C
* O=S(=O)(c1ccc(Cl)cc1)c1ccc(Cl)cc1 | 148 to 149 °C
* COc1cc(OC)c(C(=O)O)cc1OC | 144 to 145 °C
* CC(C)(N)CO | 25.5 to 30 °C
* N#Cc1ccc(C#N)cc1 | 224 to 226 °C
* CCC(C)=C(C)C | -118 °C
* CCC(=O)c1cc(O)ccc1O | 96.5 to 98 °C
* CCCCCl | -123 °C
* COP(=S)(OC)Oc1ccc([N+](=O)[O-])cc1 | 35.5 to 36 °C
* O=S(c1ccccc1)c1ccccc1 | 70 to 71.2 °C
* CC(=O)Nc1ccc(C=O)cc1 | 156 to 160 °C
